normalized growth for assorted molecules
# Test summary: chemical genetic growth profiling, strain panel (AID 1159580);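 also: tested at 20 µM; growth read once vehicle control cultures reached saturation at 30 °C; 1 = growth at the plate median or of vehicle wells; lower values mean less growth of the strain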
# Test context: S. cerevisiae deletion strains, growth OD, locus YMR263W, strain SAP30, active compounds read low
The whole screen tested about 5,500 compounds, of which about 2,000 (36%) were called active. Not shown: some 18% with an inconclusive outcome. The list shows a part of the results.
Keep the answer to the number alone.

INSERT INTO results (molecular_string, numeric_readout) VALUES
  ('COC(=O)c1cccc([N+](=O)[O-])c1-c1c(C(=O)OC)cccc1[N+](=O)[O-]', 1.03);

State its normalized growth: O=C1c2cccc(O)c2C(=O)c2c(O)cccc21
0.756

Return normalized growth (reported value) for this molecule: O=C(O)c1cc(=O)cc(C(=O)O)[nH]1
0.998

Origin of measurements: PubChem BioAssay AID1159580
